- Tested on: 184B5
- experimentNotes: CV cell viability assay on healthy breast cell line
- Format: cell-based
- details: Homo sapiens, 72 h
pIC50: −log10 of the molar value.
parameterMeasured: pIC50

query: pIC50 lookup needed for O=c1[nH]c(Nc2ccc([N+](=O)[O-])cc2)nc2ccccc12 , thanks.
result: ~5.40

* * *

- System: MCF-7, MDA-MB-468, BT-474 and HCC1937 breast cancer cells
- experimentNotes: Fast screening / CV cell viability, breast cancer cell line panel
- Assay type: cell-based, human
- Design: concentration or dose not given beside the values
- details: after 72 h of treatment, initial screening
reduction of cell viability: recorded values

Examples with answers:
> print(dat)
                                  structure            parametermeasured  observedresult
1  O=c1[nH]c(Nc2ccc([N+](=O)[O-])cc2)nc2ccccc12  reduction of cell viability           ≥ 50%
2  O=c1[nH]c(Nc2ccc(Cc3ccc([N+](=O)[O-])cc3[N+](=O)[O-])cc2)nc2ccccc12  reduction of cell viability           ≥ 50%
3        O=c1[nH]c(Nc2ccc(Cl)cc2)nc2ccccc12  reduction of cell viability           ≥ 50%
4  O=c1[nH]c(Nc2ccccc2)nc2cc([N+](=O)[O-])ccc12  reduction of cell viability           ≥ 50%

Please turn your attention to the following entry.
query: Suppose we examine the compound O=c1[nH]c(Nc2ccccc2)nc2ccc([N+](=O)[O-])cc12 ; what reduction of cell viability value has been reported?
result: ≥ 50%
